Cited source for all entries: ChEMBL document CHEMBL1151889

# system: Peroxisome proliferator-activated receptor alpha (Homo sapiens)
# Sequence (Q07869 whole entry, the tested form may be a part): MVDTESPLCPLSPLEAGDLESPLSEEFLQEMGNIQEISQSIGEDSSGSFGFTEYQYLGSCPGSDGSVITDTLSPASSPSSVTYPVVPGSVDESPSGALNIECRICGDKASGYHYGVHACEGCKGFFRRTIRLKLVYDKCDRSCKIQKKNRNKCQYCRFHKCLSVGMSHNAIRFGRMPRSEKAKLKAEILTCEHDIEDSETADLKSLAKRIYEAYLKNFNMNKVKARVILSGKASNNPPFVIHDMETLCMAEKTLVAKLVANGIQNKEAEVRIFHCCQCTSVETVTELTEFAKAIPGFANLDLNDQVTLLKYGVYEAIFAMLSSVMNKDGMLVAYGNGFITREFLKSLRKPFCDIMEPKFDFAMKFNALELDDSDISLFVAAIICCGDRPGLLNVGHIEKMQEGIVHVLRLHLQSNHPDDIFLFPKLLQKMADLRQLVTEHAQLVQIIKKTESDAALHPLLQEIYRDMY
# test: Agonist activity at human PPARalpha by Gal4 transactivation assay
# Type: functional
# experimental parameters: read-out: EC50
endpoint name: EC50 (µM)

smiles representation | system | result unit | EC50
C=CCO/N=C(\c1ccccc1)c1ccc2c(c1)C(C)(C)CCN2CCOc1ccc(C[C@H](OCC)C(=O)O)cc1 | Peroxisome proliferator-activated receptor alpha (Homo sapiens) | µM | 0.073
CO/N=C(\c1ccccc1)c1ccc2c(c1)C(C)(C)CCN2CCOc1ccc(C[C@H](Nc2ccccc2C(=O)c2ccccc2)C(=O)O)cc1 | Peroxisome proliferator-activated receptor alpha (Homo sapiens) | µM | 10
CCO[C@@H](Cc1ccc(OCCN2CCC(C)(C)c3cc(/C(=N/OCC4CC4)c4ccccc4)ccc32)cc1)C(=O)O | Peroxisome proliferator-activated receptor alpha (Homo sapiens) | µM | 0.009

P. CCO[C@@H](Cc1ccc(OCCN2CCC(C)(C)c3cc(/C(=N/OCc4ccccc4)c4ccccc4)ccc32)cc1)C(=O)O
Q. CO/N=C(\c1ccccc1)c1ccc2c(c1)C(C)(C)CCN2CCOc1ccc(C[C@H](OCC(F)(F)F)C(=O)O)cc1
Q. Lab notebook, comparison: P versus Q , higher EC50 goes to which? Response format: the label of the selected entry.
A. Q
(Q: 1 µM, P: 0.034 µM)
